Numbers sourced from ChEMBL document CHEMBL4177769.

The following compounds are listed with their measured degraded at 120 h, 2000 µM values.
assay: Drug metabolism at 2 mM at acidic pH after 5 days by 31P NMR method; format: physicochemical; settings: read-out: Drug metabolism
Numeric only. Scale: %

For orientation, consider the following solved cases.
INSERT INTO measurements (compound, value_observed) VALUES
  ('O=c1ccn([C@@H]2O[C@H](COP(=O)(O)OP(=O)(O)OP(=O)(O)O)[C@@H](O)[C@H]2O)c(=O)[nH]1 [URIDINE TRIPHOSPHATE]', 5),
  ('O=c1ccn([C@@H]2O[C@H](COP(=S)(S)OP(=O)(O)CP(=O)(O)O)[C@@H](O)[C@H]2O)c(=O)[nH]1 (stereo not given in full)', 2),
  ('O=c1ccn([C@@H]2O[C@H](COP(=S)(S)OP(=O)(O)OP(=O)(O)OP(=S)(S)OC[C@H]3O[C@@H](n4ccc(=O)[nH]c4=O)[C@H](O)[C@@H]3O)[C@@H](O)[C@H]2O)c(=O)[nH]1 (stereo not given in full)', 6),
  ('O=c1ccn([C@@H]2O[C@H](COP(=S)(S)OP(=O)(O)OP(=O)(O)O)[C@@H](O)[C@H]2O)c(=O)[nH]1 (stereo not given in full)', 11);

Quick one: degraded at 120 h, 2000 µM for Nc1nc(SCc2ccccc2)nc2c1ncn2[C@@H]1O[C@H](COP(O)(=S)OP(=O)(O)OP(=O)(O)O)[C@@H](O)[C@H]1O (stereo not given in full) ?
25
